Value source: PubChem BioAssay (EPA / NIEHS)

- Read-out: Matrix Metallopeptidase 1 (MMP1), MMP1 (gene 4312)
- Test Name: BSK_MyoF_MMP1: BioMAP Diversity Plus: MyoF Assay for Matrix Metallopeptidase 1 (MMP1) Biomarker Activity (AID 2284268)
- Test Parameters: primary human lung fibroblasts
The source made the active and inactive calls. How the source made its calls: active means hit-call score of the fitted dose curve at least 0.9, where 1 is the maximum; inactive means score below 0.9.
Measurement Type: AC50

>>> df
                                   compound      assay_result
0  O=P1(NCCCl)OCCCN1CCCl (stereo not drawn)          inactive
1          COCC(=O)N(c1c(C)cccc1C)N1CCOC1=O          inactive
2  COC(C)(C)CCC[C@H](C)C/C=C/C(C)=C/C(=O)OC(C)C  26.9 µM (active)

----------
- Read-out: Intercellular Adhesion Molecule 1 (ICAM1), ICAM1 (gene 3383)
- Test Name: BSK_3C_ICAM1: BioMAP Diversity Plus: 3C Assay for Intercellular Adhesion Molecule 1 (ICAM1) Biomarker Activity (AID 2283003)
- Test Parameters: primary human endothelial cells (HUVEC); actives raise or lower the signal
The source made the active and inactive calls. How the source made its calls: active means hit-call score of the fitted dose curve at least 0.9, where 1 is the maximum; inactive means score below 0.9.
Possible outcomes: true (1) for active, false (0) for inactive

                                 mol_smiles  class_assignment
0  CC(C)CCCCCCCOC(=O)c1ccccc1C(=O)OCCCCCCCC(C)C         false (0)
1                CNC(=O)Oc1cc(C)c(SC)c(C)c1         false (0)
2            O=C1C(Cl)=C(Cl)C(=O)C(Cl)=C1Cl          true (1)
3                     Clc1ccc(-c2ccccc2)cc1         false (0)
4    CC(C)CCCCCCCOP(=O)(Oc1ccccc1)Oc1ccccc1          true (1)
5          COCC(=O)N(c1c(C)cccc1C)N1CCOC1=O         false (0)

----------
- Assay Target: Bile acid receptor (Homo sapiens) (UniProt Q96RI1)
- Sequence (Q96RI1 whole entry, looked up): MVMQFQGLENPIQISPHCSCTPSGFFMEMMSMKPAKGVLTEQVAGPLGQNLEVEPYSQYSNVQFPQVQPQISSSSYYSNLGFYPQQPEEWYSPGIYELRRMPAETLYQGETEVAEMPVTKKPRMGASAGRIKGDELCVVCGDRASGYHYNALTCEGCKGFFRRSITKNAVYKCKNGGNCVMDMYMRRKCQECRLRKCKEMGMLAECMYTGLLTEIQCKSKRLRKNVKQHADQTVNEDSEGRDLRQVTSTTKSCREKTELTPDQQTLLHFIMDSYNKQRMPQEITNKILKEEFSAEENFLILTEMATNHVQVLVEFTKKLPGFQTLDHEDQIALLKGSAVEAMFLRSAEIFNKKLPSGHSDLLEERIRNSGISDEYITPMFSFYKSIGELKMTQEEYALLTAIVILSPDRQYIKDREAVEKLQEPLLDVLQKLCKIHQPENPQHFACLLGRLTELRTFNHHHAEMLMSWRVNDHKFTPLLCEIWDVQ
- Test Name: ATG_IR1_CIS: Attagene CIS-FACTORIAL HepG2 Assay for human Nuclear Receptor Subfamily 1 Group H Member 4 (NR1H4), IR1 submotif (AID 2282946)
- Test Parameters: IR1 reporter transcription, actives raise or lower the signal
The source made the active and inactive calls. How the source made its calls: active means hit-call score of the fitted dose curve at least 0.9, where 1 is the maximum; inactive means score below 0.9.
Possible outcomes: active, inactive

                                    compound  class_assignment
 0  ClC1=C(Cl)[C@]2(Cl)[C@@H]3[C@@H](Cl)[C@H](Cl)C[C@@H]3[C@@]1(Cl)C2(Cl)Cl          inactive
 1  COc1cc(OC)nc(Oc2cccc(Oc3nc(OC)cc(OC)n3)c2C(=O)O)n1          inactive
 2  CNC(=N[N+](=O)[O-])NCC1CCOC1 (centres undefined)          inactive
 3  Cc1cc(C)c(C2=C(OC(=O)CC(C)(C)C)C3(CCCC3)OC2=O)c(C)c1          inactive
 4                           CN(N=O)c1ccccc1          inactive
 5                              CC(C)C(=O)Cl          inactive
 6  CC(Cc1ccc(C(C)(C)C)cc1)CN1C[C@@H](C)O[C@@H](C)C1 (some centres undefined)          inactive
 7                CNC(=O)Oc1cc(C)c(SC)c(C)c1          inactive
 8                            CCCCNP(N)(N)=S          inactive
 9                               CC(C)(O)C#N          inactive
10               Nc1ccc(-c2ccc(N)c(N)c2)cc1N          inactive
11                             O=C(O)C(Br)Br          inactive
12                       CCCCCc1cc(O)cc(O)c1            active
13                O=C(O)c1cc[c]([Hg][Cl])cc1          inactive

----------
- Assay Target: Heat shock factor protein 1 (Homo sapiens) (UniProt Q00613)
- Sequence (Q00613 whole entry, looked up): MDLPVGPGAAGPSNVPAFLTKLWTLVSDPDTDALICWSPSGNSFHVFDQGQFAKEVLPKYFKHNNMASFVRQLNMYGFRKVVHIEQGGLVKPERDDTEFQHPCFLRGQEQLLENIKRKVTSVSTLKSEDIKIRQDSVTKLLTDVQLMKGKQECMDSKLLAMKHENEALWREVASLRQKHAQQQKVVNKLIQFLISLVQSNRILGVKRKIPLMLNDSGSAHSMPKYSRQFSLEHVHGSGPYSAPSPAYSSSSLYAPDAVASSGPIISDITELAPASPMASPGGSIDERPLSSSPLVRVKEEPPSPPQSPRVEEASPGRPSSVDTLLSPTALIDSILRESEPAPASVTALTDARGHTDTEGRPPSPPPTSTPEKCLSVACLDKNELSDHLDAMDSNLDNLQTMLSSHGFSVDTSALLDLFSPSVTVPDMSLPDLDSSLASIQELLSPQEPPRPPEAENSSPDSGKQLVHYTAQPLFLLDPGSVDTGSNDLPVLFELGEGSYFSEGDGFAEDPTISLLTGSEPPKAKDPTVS
- Test Name: ATG_HSE_CIS: Attagene CIS-FACTORIAL HepG2 Assay for human Heat Shock Transcription Factor 1 (HSE) (AID 2282953)
- Test Parameters: HepG2 HSE cis-reporter, Attagene RNA transcription; actives raise or lower the signal
Calls of active or inactive are those of the source. Rule for the calls: active = hit-call score of the fitted dose curve at least 0.9, where 1 is the maximum; inactive = score below 0.9.
Possible outcomes: label 1 = active, label 0 = inactive

                                    molecule  class_assignment
 0           CSc1nc(N=[N+]=[N-])nc(NC(C)C)n1           label 0
 1                         CC(=O)C=Cc1ccccc1           label 1
 2                              C=CC(=O)OCCO           label 0
 3               CCCCCCCCCCCCCCCC[N+](C)(C)C           label 0
 4                                CN(C)CCC#N           label 0
 5                                  C=COCCCl           label 0
 6                          O=C(O)COc1ccccc1           label 0
 7  O=[N+]([O-])c1cc([N+](=O)[O-])c2ccccc2c1           label 0
 8                          O=C1C=CC(=O)C=C1           label 0
 9                       CC=Cc1ccc2c(c1)OCO2           label 0
10  Oc1ccc(C2(c3ccc(O)cc3)c3ccccc3-c3ccccc32)cc1           label 1
11    CCOC(=O)NC(=S)Nc1ccccc1NC(=S)NC(=O)OCC           label 0
12  COc1ncc(F)c2nc(S(=O)(=O)Nc3c(F)cccc3F)nn12           label 0
13  c1cc(OCC2CO2)ccc1Cc1ccc(OCC2CO2)cc1 (centres undefined)           label 1

----------
- Test Name: ATG_M_32_TRANS: Attagene TRANS-FACTORIAL HepG2 Assay for M32 Transcription Factor (Internal Marker) (AID 2282984);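 further: transcript level of a background control reporter unit measured by RT-PCR and capillary electrophoresis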
- Test Parameters: HepG2 Attagene TRANS M32 internal marker reporter
Records with an inconclusive call do not appear. The source made the active and inactive calls. The calls were made as follows: active = hit-call score of the fitted dose curve at least 0.9, where 1 is the maximum; inconclusive = response in the unintended direction; inactive = score below 0.9.
Measurement Type: outcome

In [3]: df
Out[3]:
                                 mol_smiles  assay_result
0                                NNc1ccccc1      inactive
1                    C=CC(=O)OCCCCOC(=O)C=C      inactive
2                CCCOC(=O)c1ccccc1C(=O)OCCC      inactive
3  CCc1cc(C)cc(CC)c1-c1c(OC(=O)C(C)(C)C)n2n(c1=O)CCOCC2      inactive
4                              CC(C)C(=O)Cl      inactive
5                   COC(=O)COc1ccc(Cl)cc1Cl      inactive
6                               CC(C)(O)C#N      inactive
7                       CC=Cc1ccc2c(c1)OCO2      inactive

----------
- Assay Target: Cellular tumor antigen p53 (Homo sapiens) (UniProt P04637)
- Sequence (P04637 whole entry, looked up): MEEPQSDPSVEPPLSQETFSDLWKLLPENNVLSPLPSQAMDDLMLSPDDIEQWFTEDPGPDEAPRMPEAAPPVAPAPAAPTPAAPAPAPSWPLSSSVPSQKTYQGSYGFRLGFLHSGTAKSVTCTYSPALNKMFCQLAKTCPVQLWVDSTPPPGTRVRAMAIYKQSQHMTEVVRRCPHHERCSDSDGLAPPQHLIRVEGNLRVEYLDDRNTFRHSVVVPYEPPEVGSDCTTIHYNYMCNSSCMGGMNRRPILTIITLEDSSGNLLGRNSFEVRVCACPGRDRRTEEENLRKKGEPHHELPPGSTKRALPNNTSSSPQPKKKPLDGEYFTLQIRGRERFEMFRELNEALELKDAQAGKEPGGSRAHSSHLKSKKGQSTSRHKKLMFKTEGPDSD
- Test Name: TOX21_p53_BLA_p5_ratio: Tox21 HCT-116 p53 Agonism Beta-lactamase Assay, Ratio, Phase 5 (AID 2283599)
Records with an inconclusive call do not appear. Calls of active or inactive are those of the source. How the source made its calls: active means hit-call score of the fitted dose curve at least 0.9, where 1 is the maximum; inconclusive means response in the unintended direction; inactive means score below 0.9.
Possible outcomes: active, inactive

>>> df
                                    molecule  class_assignment
 0              CC(C)COP(=O)(OCC(C)C)OCC(C)C          inactive
 1  CCN(C(C)=O)c1cccc(-c2ccnc3c(C#N)cnn23)c1          inactive
 2                          O=C(CCl)c1ccccc1          inactive
 3  Oc1ccc2c3c1O[C@H]1[C@@H](O)C=C[C@H]4[C@@H](C2)NCC[C@@]341          inactive
 4                COc1ccc(C(=O)N2CCCC2=O)cc1          inactive
 5                   O=c1[nH]c(Cl)c(Cl)cc1Cl          inactive
 6              COc1cc(C[C@H](C)N)c(OC)cc1Br          inactive
 7  CC(C)(C)NCC(O)c1ccccc1Cl (stereo unspecified)          inactive
 8                CNC(=O)Oc1cc(C)cc(C(C)C)c1          inactive
 9             Nc1ccc(Cc2ccc(N)c(Cl)c2)cc1Cl          inactive
10  Cn1cc(C2=C(c3cn(C4CCN(Cc5ccccn5)CC4)c4ccccc34)C(=O)NC2=O)c2ccccc21          inactive
11  CCCCCCC(=O)O[C@H]1CC[C@H]2[C@@H]3CC[C@H]4CC(=O)C=C(C)[C@]4(C)[C@H]3CC[C@]12C          inactive
12  CCCCNCC(O)c1ccc(O)cc1 (stereo unspecified)          inactive
13          c1ccc2c(c1)cc1ccc3cccc4ccc2c1c34            active
14  O=C(NCNC(=O)NC1C(=O)NC(=O)N1CO)NC1C(=O)NC(=O)N1CO (stereo unspecified)          inactive
15                                  OCCSSCCO          inactive
16                CN(C)CCc1c[nH]c2ccc(O)cc12          inactive
17  C[C@]12CC[C@H]3[C@@H](CCC4=CC(=O)CC[C@@H]43)[C@@H]1CC[C@@H]2O          inactive
18                               IC(I)=C(I)I            active
19                                  O=[Se]=O          inactive
20                       Oc1cccc[c]1[Hg][Cl]            active
21  C[C@]12CC[C@H]3[C@@H](CCC4=C(Cl)C(=O)CC[C@@]43C)[C@@H]1CC[C@@H]2O          inactive
22             CCc1cc(OC)c(C[C@@H](C)N)cc1OC          inactive
23                   Cn1c(N)nc2c3cccnc3ccc21          inactive
24  CC1CCCC1.[C-]#[O+].[C-]#[O+].[C-]#[O+].[Mn]          inactive
25               CCOP(=O)(OCC)OP(=O)(OCC)OCC          inactive
